Exercise: for every item that follows, state its recorded pre-steady-state target cleavage rate.
# Tested on: MILI (PIWIL2) piRISC loaded with L1MC piRNA (26 nt);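 further: 1 nM active piRISC with 0.1 nM target library at 33 °C single turnover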
# protocol.summary: pre-steady-state target cleavage rate (min^-1); guide: L1MC piRNA 5'p-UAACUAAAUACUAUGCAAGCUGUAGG; higher = faster piRNA-guided slicing of the target
# experimental.conditions: auxiliary factor: none (no GTSF1)

{"sequence": "UCCUCGUAGAGCUUGCAUAGUAUUUAGUUA", "pre-steady-state target cleavage rate": 0.00554}
{"sequence": "UCCUGCUACAGCUUGCUUAGUAAUUAGUUA", "pre-steady-state target cleavage rate": 0.00332}
{"sequence": "UCCUGGAUCAGCUUGCAAUGUAUUUAGUAA", "pre-steady-state target cleavage rate": 0.00611}
{"sequence": "UCCUGGAUCAGCUUGCAAUCUAUUUACAAA", "pre-steady-state target cleavage rate": "< 0.0001"}
{"sequence": "UCCUGCUACUGCAUGCAUAGUAUUUAGUUA", "pre-steady-state target cleavage rate": 0.00943}

Look at each sequence and report its pre-steady-state target cleavage rate.
1. UCCUGGUAGAGCUUGCAUAGUAUAUAGUUA
2. UCCUGGAACAGCUUGCAAAGUAAUUAGUUA

0.00638
0.00424

----------
# System: EfPiwi piRISC loaded with L1MC piRNA (26 nt)
# protocol.summary: pre-steady-state target cleavage rate (min^-1); auxiliary factor: 500 nM Ephydatia muelleri Gtsf1; guide: L1MC piRNA 5'p-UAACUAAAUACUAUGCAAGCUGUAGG; higher = faster piRNA-guided slicing of the target
Where pre-steady-state target cleavage rate equals or exceeds 0.004, the correct label is T; where it does not, the label is F.

{"sequence": "UCCUGGAACAGCUUCCAUAGUAUUUAGUAA", "assigned.class": "F"}
{"sequence": "UCCUGCUACAGCUUGCAAAGUAUUUAGUUA", "assigned.class": "T"}
{"sequence": "UCCUGGAUCAGCUGGCAUAGUAUUUAGUUA", "assigned.class": "T"}

Quick check: does UCCUGGAACAGCAUGCAUAGUAUUUAGUAA have pre-steady-state target cleavage rate greater than or equal to 0.004?
F

Quick check: does UCCUGGAACUGCUUGCAUAGUAUUUUGUUA have pre-steady-state target cleavage rate greater than or equal to 0.004?
T

Quick check: does UCCUGGAUCAGCUUGCAUAGUACUUAGUUA have pre-steady-state target cleavage rate greater than or equal to 0.004?
T

Quick check: does UCCUGGUACAGCUUGCAUAGUAUAUAGUAA have pre-steady-state target cleavage rate greater than or equal to 0.004?
F

Quick check: does UCCUGGAUGUCGAACCAUAGUAUUUAGUCA have pre-steady-state target cleavage rate greater than or equal to 0.004?
F

Quick check: does UCCUGGAUGAGCUUGCUUAGUAUUAAGUUA have pre-steady-state target cleavage rate greater than or equal to 0.004?
F

Quick check: does UCCUGGAUCAGCUUGCAAUGUAUUUAGUUA have pre-steady-state target cleavage rate greater than or equal to 0.004?
T

Quick check: does UCCUGGUACUCCUUGCAUAGUAUUUAGAAA have pre-steady-state target cleavage rate greater than or equal to 0.004?
F

----------
# Test system: MILI (PIWIL2) piRISC loaded with L1MC piRNA (26 nt);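 further: 1 nM active piRISC with 0.1 nM target library at 33 °C single turnover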
# protocol.summary: pre-steady-state target cleavage rate (min^-1); guide: L1MC piRNA 5'p-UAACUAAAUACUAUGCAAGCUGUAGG; higher = faster piRNA-guided slicing of the target
# experimental.conditions: auxiliary factor: 500 nM mouse GTSF1
Where pre-steady-state target cleavage rate equals or exceeds 0.09, the correct label is 1 (yes); where it does not, the label is 0 (no).

Known results for sequences:
{"sequence": "UCCUGGAACAGCUUGCAUCAGUAUUUAGUUA", "assigned.class": "0 (no)"}
{"sequence": "UCCUGGAUGUGCUUGCAUAGUAUUUACGUUA", "assigned.class": "1 (yes)"}
{"sequence": "UCCUGGAUGUCCUUGAAUAGUAUUUAGUUA", "assigned.class": "1 (yes)"}

Quick check: does UCCUGGAUGAGCUUGCAUAGUGUUUAGUUA have pre-steady-state target cleavage rate greater than or equal to 0.09?
1 (yes)

Quick check: does UCCUGGUUGUGCUUGCAUAGUAUUUAGUAA have pre-steady-state target cleavage rate greater than or equal to 0.09?
1 (yes)

Quick check: does UCCUCCUACAGCUUGCUUAGUAUUUAGAUA have pre-steady-state target cleavage rate greater than or equal to 0.09?
1 (yes)

Quick check: does UCCUGGUACAGCUUGCUUAGUUUUUAGUUA have pre-steady-state target cleavage rate greater than or equal to 0.09?
0 (no)

Quick check: does UCCUGGAUGAGCUUGCAUAGUAUUUACUAA have pre-steady-state target cleavage rate greater than or equal to 0.09?
0 (no)

Quick check: does UCCUGGAAUCAGCUUGCAUAGUAUUUAGUUA have pre-steady-state target cleavage rate greater than or equal to 0.09?
1 (yes)

----------
# System: EfPiwi piRISC loaded with L1MC piRNA (26 nt)
# protocol.summary: pre-steady-state target cleavage rate (min^-1); auxiliary factor: 500 nM Ephydatia muelleri Gtsf1; guide: L1MC piRNA 5'p-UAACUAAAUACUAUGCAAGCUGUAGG; higher = faster piRNA-guided slicing of the target
Where pre-steady-state target cleavage rate equals or exceeds 0.003, the correct label is YES; where it does not, the label is NO.

Quick check: does UCCUGGAUCAGCUUGCAUAGUAUUUUGUUA have pre-steady-state target cleavage rate greater than or equal to 0.003?
YES

Quick check: does UCCUGGAUGAGCUUGCAUAGUAUUUAGUUUA have pre-steady-state target cleavage rate greater than or equal to 0.003?
YES

Quick check: does UCCUGGUACUGCUUGCAUUGUAUUUAGUUA have pre-steady-state target cleavage rate greater than or equal to 0.003?
YES

Quick check: does UCCUCCUACAGCUUGGAUAGUAUUUACAAA have pre-steady-state target cleavage rate greater than or equal to 0.003?
NO

Quick check: does UCCUGGAUGUCGAAGGAUAGUAUUAAGUUA have pre-steady-state target cleavage rate greater than or equal to 0.003?
NO

Quick check: does UCCUGGUACAGCUUGCAUAGUAUUUUGUAA have pre-steady-state target cleavage rate greater than or equal to 0.003?
YES

Quick check: does UCCUGGAUGUCGAACGUAUCAAUAUAGUUA have pre-steady-state target cleavage rate greater than or equal to 0.003?
NO

Quick check: does UCCUCCUACAGCUUGCAUAGUAGUUAGUUA have pre-steady-state target cleavage rate greater than or equal to 0.003?
YES

----------
# Tested on: EfPiwi piRISC loaded with L1MC piRNA (26 nt)
# protocol.summary: pre-steady-state target cleavage rate (min^-1); auxiliary factor: 500 nM Ephydatia muelleri Gtsf1; guide: L1MC piRNA 5'p-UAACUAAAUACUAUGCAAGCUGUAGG; MIWI and MILI are mouse PIWI proteins and EfPiwi is from a freshwater sponge; tags in brackets are library labels; higher = faster piRNA-guided slicing of the target
outcome.measure: pre-steady-state target cleavage rate
One number for each entry.

{"sequence": "UCCUGGAUCAGCUUGCAUAGUAAUUAGAAA", "outcome.measure": "pre-steady-state target cleavage rate", "assay.value": 0.00582}
{"sequence": "UCCUCCUACAGCUUGCAUAGAUUUAGUUA", "outcome.measure": "pre-steady-state target cleavage rate", "assay.value": 0.00442}
{"sequence": "UCCUGGUAGAGCAUGCAUAGUAUUUAGUUA", "outcome.measure": "pre-steady-state target cleavage rate", "assay.value": 0.0134}
{"sequence": "UCCUGGAACAGCUUGCAUAGUAUUUCAGUUA", "outcome.measure": "pre-steady-state target cleavage rate", "assay.value": 0.00308}
{"sequence": "UCCUGCUACAGCUUUCAUAGUAUUUAGUUA", "outcome.measure": "pre-steady-state target cleavage rate", "assay.value": 0.00701}

Look at each sequence and report its pre-steady-state target cleavage rate.
1. UCCUCCUACAGCUUGCAUAUAUUUAGUUA
2. UCCUGGUACAUGCUUGCAUAGUAUUUAGUUA

[0.00725, 0.0077]

Look at each sequence and report its pre-steady-state target cleavage rate.
1. UCCUGCUACAGCAUGCAUAGUAUUUACUUA
2. UCCUGGAUGAGCGUGCAUAGUAUUUAGUUA
3. UCCUGGAACAGCAAGCAUAGUAUUUAGAAA
4. UCCUCCUACAGCUUGCAUAGAUUUUAGUUA
5. UCCUCCUACAGCAUGCAUAGAAUUUAGUUA
6. UCCUGCUAGUCCUUGCAUAGUAUUUAGUUA
7. UCCUGGAUCAGCUUGCAUAGUAUAUUAGUUA
8. UCCUCCAACAGCUUGCAUAGUAUUAAGUUA

1: 0.0037; 2: 0.0239; 3: 0.00309; 4: 0.0032; 5: 0.00245; 6: 0.00428; 7: 0.127; 8: 0.00502

Look at each sequence and report its pre-steady-state target cleavage rate.
1. UCCUGCUACAGCUUGCAUAGUACUUAGUUA
2. UCCUCUUACAGCUUGCAUAGUAUUUAGUUA
3. UCCUGGAUGAGCUUGCAUUGUAUUUAGUAA
4. UCCUGGAUCAGCUUGUAUAGUAUUUAGUUA
5. UCCUGCUACAGCUUGCAUUGUAUUUACAAA

[0.00608, 0.243, 0.00311, 0.104, 0.00313]

Look at each sequence and report its pre-steady-state target cleavage rate.
1. UCCUCCUACAGCAUGCAUAGUAUUUACAAA
2. UCCUGCUACAGCUUGCAUAGUAAUUACAAA
3. UCCUCCUACAGCUUGCAUAGUUUUUUCAAA
4. UCCUGCUACAGCAUGCAUAGUAAUUAGUUA
5. UCCUGGAACAGCCUGCAUAGUAUUUAGUUA
6. UCCUGGAUGAGCUUGCAUAGUAUUUAGUCA

1: 0.00397; 2: 0.00259; 3: 0.00481; 4: 0.007; 5: 0.0144; 6: 0.00793
